test: qHTS assay to identify small molecule antagonists of the retinoid-related orphan receptor gamma (ROR-gamma) signaling pathway - cell viability counter screen (AID 1159520); also: nearly all actives have a fitted effect of over 50% in size
setup-conditions: Tet-on RORgamma CHO cells viability, ATP luminescence, 16 h; series mostly up to 92.4 µM
Results filed as inconclusive are left out. Activity calls are given as the source filed them. Calls follow the shape of the dose curve; as a rule, active = well fitted cell-killing curve with a large enough effect in the repeat runs; inconclusive = weak or mixed curves, or effect the other way; inactive = no such curve, though single readings can be large or run the other way.
Classes used: active, inactive

compound: O=c1[nH]cnc2nc[nH]c12
qualitative-label: inactive

compound: O=C(Oc1ccccc1)c1ccccc1C(=O)Oc1ccccc1
qualitative-label: inactive

compound: Nc1c(Cl)cc(Cl)cc1Cl
qualitative-label: inactive

compound: O=[N+]([O-])c1cc(Cl)c(Cl)c(Cl)c1Cl
qualitative-label: inactive

compound: Cc1cccc(S(=O)(=O)O)c1C
qualitative-label: inactive

compound: OCCN(CCO)c1nc(N2CCCCC2)c2nc(N(CCO)CCO)nc(N3CCCCC3)c2n1
qualitative-label: inactive

compound: NC(=O)CC[C@@H]1NC(=O)[C@H](Cc2ccccc2)NC(=O)[C@H](Cc2ccc(O)cc2)NC(=O)CCSSC[C@@H](C(=O)N2CCC[C@H]2C(=O)N[C@@H](CCCN=C(N)N)C(=O)NCC(N)=O)NC(=O)[C@H](CC(N)=O)NC1=O
qualitative-label: inactive

compound: CNC(=O)c1ccccc1
qualitative-label: inactive

compound: Oc1ccc2cc(SSc3ccc4cc(O)ccc4c3)ccc2c1
qualitative-label: active

compound: Cc1cccc(N(C)C(=S)Oc2ccc3c(c2)C2CCC3C2)c1 (stereo not given)
qualitative-label: inactive

compound: CCc1cc(Cc2cc(CC)cc(C(C)(C)C)c2O)c(O)c(C(C)(C)C)c1
qualitative-label: active

compound: CC(C)C(C)(C)C(C)(C)C(C)(C)S
qualitative-label: inactive

compound: Cn1cc(C(=O)[C@@H]2CCc3nc[nH]c3C2)c2ccccc21
qualitative-label: inactive

compound: Cc1cccc(CN2CCN(C(c3ccccc3)c3ccc(Cl)cc3)CC2)c1 (stereo not given)
qualitative-label: inactive

compound: Clc1ccc2n[nH]nc2c1
qualitative-label: inactive

compound: Nc1ccc2c3c(cccc13)-c1ccccc1-2
qualitative-label: inactive

compound: O=C1C=CC(=O)N1
qualitative-label: active

compound: CC(C)OC(=O)c1cc2c(OCC(O)CNC(C)(C)C)cccc2[nH]1 (stereo not given)
qualitative-label: inactive

compound: c1ccc(CSCc2ccccc2)cc1
qualitative-label: inactive

compound: COc1ccc(C(=O)/C(Br)=C\C(=O)O)cc1
qualitative-label: active

compound: CC(C)(C)C(=O)OCOC(=O)[C@@H]1N2C(=O)[C@@H](NC(=O)[C@H](N)c3ccccc3)[C@H]2SC1(C)C
qualitative-label: inactive

compound: CCCCCCCCCCCCc1ccc(O)cc1
qualitative-label: active

compound: CCCCCCCCCCCCCCCC(=O)OC[C@H](O)[C@H]1OC(=O)C(O)=C1O
qualitative-label: inactive

compound: CCC1OCC(COc2ccc(Oc3ccccc3)cc2)O1 (stereo not given)
qualitative-label: inactive

compound: CC(C)CCCCCCCCCCCCCCC(=O)O
qualitative-label: active

compound: CC1=C(/C=C/C(C)=C/C=C/C(C)=C/C=O)C(C)(C)CCC1
qualitative-label: active

compound: OC1(c2ccc(Cl)c(C(F)(F)F)c2)CCN(CCCC(c2ccc(F)cc2)c2ccc(F)cc2)CC1
qualitative-label: active

compound: Cc1onc(-c2ccccc2Cl)c1C(=O)N[C@@H]1C(=O)N2[C@@H]1SC(C)(C)[C@@H]2C(=O)O
qualitative-label: inactive

compound: COc1cc(/C=C/C(=O)O[C@H]2CC[C@]34C[C@]35CC[C@]3(C)[C@@H]([C@H](C)CCC=C(C)C)CC[C@@]3(C)[C@@H]5CC[C@H]4C2(C)C)ccc1O
qualitative-label: inactive

compound: CCC(C)Nc1ccc(NC(C)CC)cc1 (stereo not given)
qualitative-label: active

compound: CC(C)(C)c1ccc(C(=O)O)cc1
qualitative-label: inactive

compound: Cc1[nH]nc2c1N=C(c1ccccc1Cl)c1cc([N+](=O)[O-])ccc1N2
qualitative-label: active

compound: O=C(OCC(COC(=O)c1ccccc1)(COC(=O)c1ccccc1)COC(=O)c1ccccc1)c1ccccc1
qualitative-label: inactive

compound: Nc1ccc2cc(S(=O)(=O)O)cc(O)c2c1N=Nc1ccccc1C(F)(F)F
qualitative-label: inactive

compound: O=c1[nH]sc2cc(Cl)ccc12
qualitative-label: active
